B1: POLD4 (parent)
chain: ITDSYPVVKRREGPAGHSKGELAP

variants of: B1; assay: protein stability index of a GFP-peptide fusion (GPS, HEK-293T) (PSI 1-6); higher = more stable; conditions: c terminus: a fixed tail appended;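 further: lentivirally expressed fusions sorted by FACS into six bins by GFP to DsRed ratio, PSI derived from sequencing read proportions per bin multiplied by bin number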
Assay Readout: protein stability index

input: Fill blank: measured protein stability index of the variant ITDSYPVVKRRDGPAGHSKGELAP is ____.
output: 3.08

input: Fill blank: measured protein stability index of the variant ITDSYPVVKRREGPAGHSKGELRP is ____.
output: 3.01

input: Fill blank: measured protein stability index of the variant ITDSYPVVKRREGPAGHSKYELAP is ____.
output: 2.92

input: Fill blank: measured protein stability index of the variant ITDSYPVVKRREAPAGHSKGELAP is ____.
output: 2.92

input: Fill blank: measured protein stability index of the variant ITDSYPVVKRRGGPAGHSKGELAP is ____.
output: 3.01

input: Fill blank: measured protein stability index of the variant ITDSYPVVKRLEGPAGHSKGELAP is ____.
output: 2.98

input: Fill blank: measured protein stability index of the variant ITDSYPVVKRREGPAGFSKGELAP is ____.
output: 3.01

input: Fill blank: measured protein stability index of the variant ITDSYPVVKRREGPNGHSKGELAP is ____.
output: 2.97

input: Fill blank: measured protein stability index of the variant ITDSYPVVKRREGPAGHSKGEGAP is ____.
output: 2.91

input: Fill blank: measured protein stability index of the variant ITDSYPVVKRREGPMGHSKGELAP is ____.
output: 3.08
